# target-or-test-system: UniProt P00817
# Sequence (P00817 2-287): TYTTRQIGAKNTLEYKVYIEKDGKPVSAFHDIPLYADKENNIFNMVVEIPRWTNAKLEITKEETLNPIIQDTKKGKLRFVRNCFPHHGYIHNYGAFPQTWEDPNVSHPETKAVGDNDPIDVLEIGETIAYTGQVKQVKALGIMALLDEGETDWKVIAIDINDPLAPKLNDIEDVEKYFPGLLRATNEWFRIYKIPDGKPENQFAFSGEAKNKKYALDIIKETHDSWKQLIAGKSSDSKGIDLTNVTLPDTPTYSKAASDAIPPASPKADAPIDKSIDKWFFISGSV
measurement-label: IC50

Entry [F-].[Na+] ; assay system UniProt P00817; IC50 recorded at ~18.2 µM

Where these numbers come from: paper PMC5059578
